Source of measurements: the FLAb antibody collection (doi:10.7554/elife.23156)

B1: scFv; the commonest letter at each place (parent)
chain 1: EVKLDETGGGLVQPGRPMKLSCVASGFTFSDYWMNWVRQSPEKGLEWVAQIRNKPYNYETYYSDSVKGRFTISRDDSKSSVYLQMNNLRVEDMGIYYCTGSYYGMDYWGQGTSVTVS
chain 2: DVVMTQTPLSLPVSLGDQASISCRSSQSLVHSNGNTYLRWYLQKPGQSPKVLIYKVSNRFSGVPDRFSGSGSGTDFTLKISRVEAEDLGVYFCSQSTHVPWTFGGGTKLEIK

variants of: B1; experiment: yeast surface expression (ratio to wild type); higher = more expressed; settings: format: scFv 4-4-20, heavy + light
measured_attribute: yeast surface expression
// return a plain number; no unit text

Ask: Specify yeast surface expression for chain 1 F29P W36A and stop.
Reply: 0.456

Ask: Specify yeast surface expression for chain 1 D31F Y32V N35C and stop.
Reply: 0.0993

Ask: Specify yeast surface expression for chain 1 Y107H and stop.
Reply: 1

Ask: Specify yeast surface expression for chain 1 Y103N G109P and stop.
Reply: 0.519

Ask: Specify yeast surface expression for chain 1 Y102Q Y107H and stop.
Reply: 1.01

Ask: Specify yeast surface expression for chain 1 Y107W W108T and stop.
Reply: 0.647

Ask: Specify yeast surface expression for chain 1 F29C S30T N35E and stop.
Reply: 0.668

Ask: Specify yeast surface expression for chain 1 G109A and stop.
Reply: 0.719

Ask: Specify yeast surface expression for chain 1 G104T W108F and stop.
Reply: 0.329

Ask: Specify yeast surface expression for chain 1 W108M G109E and stop.
Reply: 0.408

Ask: Specify yeast surface expression for chain 1 M105I D106Y and stop.
Reply: 0.4

Ask: Specify yeast surface expression for chain 1 D106R G109H and stop.
Reply: 0.486

Ask: Specify yeast surface expression for chain 1 M105W W108V and stop.
Reply: 0.756

Ask: Specify yeast surface expression for chain 1 Y102L W108Q and stop.
Reply: 0.328

Ask: Specify yeast surface expression for chain 1 S101L G104I and stop.
Reply: 0.452

Ask: Specify yeast surface expression for chain 1 S30I and stop.
Reply: 0.787

Ask: Specify yeast surface expression for chain 1 M105Y W108R and stop.
Reply: 0.286

Ask: Specify yeast surface expression for chain 1 T28A W33S and stop.
Reply: 0.826

Ask: Specify yeast surface expression for chain 1 Y103K G104R W108V and stop.
Reply: 0.32

Ask: Specify yeast surface expression for chain 1 S101H D106C and stop.
Reply: 0.467

Ask: Specify yeast surface expression for chain 1 Y103L M105I and stop.
Reply: 0.741

Ask: Specify yeast surface expression for chain 1 S30F and stop.
Reply: 0.828
